# measurement description: Pharmacokinetic study in male CD1 mice
# Format: in vivo, mouse
# experimental setup: male, CD1, mouse, plasma, intravenous, 2 mg/kg, 2 mg/kg IV, 4 h; read-out: Plasma Concentration, Average
# Experimental: The pharmacokinetic (PK) profile in plasma of Compound 1 was determined in male CD1 mice following single dose intravenous (IV) (2 mg/kg) and per os (PO) (10 mg/kg) administration. […] All animals were housed in cages with clean bedding and maintained and monitored for good health and at the discretion of the laboratory animal veterinarian. […] After blood collection from each animal, the sample from that animal was recorded in the sample collection sheet. […]
endpoint label: concentration at 4 h (ng/mL)
# output: bare number, implied unit ng/mL

So, COc1cc(-c2cn(C)c(=O)c(C)c2C)cc(OC)c1CN1CC[C@H](N2CCN(c3ccc(N[C@H]4CCC(=O)NC4=O)cc3F)CC2)C(F)(F)C1 ? Its concentration at 4 h was 456

====

# measurement description: Pharmacokinetic study in male CD1 mice
# Format: in vivo, mouse
# experimental setup: male, CD1, mouse, plasma, oral, 10 mg/kg, 10 mg/kg PO, 8 h; read-out: Plasma Concentration, Average
endpoint label: concentration at 8 h (ng/mL)
# output: bare number, implied unit ng/mL

So, COc1cc(-c2cn(C)c(=O)c(C)c2C)cc(OC)c1CN1CC[C@H](N2CCN(c3ccc(N[C@H]4CCC(=O)NC4=O)cc3F)CC2)C(F)(F)C1 ? Its concentration at 8 h was 983

====

# measurement description: HepG2 in vitro viability assay (CellTiter-Glo, 72 hours)
# Assay type: cell-based, human
# experimental setup: human, HepG2 cells; 1.01 nM, 72-hour treatment
endpoint label: viability at 72 h, 0.00101 µM (%)
# output: bare number, implied unit %

So, COc1cc(-c2cn(C)c(=O)c(C)c2C)cc(OC)c1CN1CC[C@H](N2CCN(c3ccc(N[C@H]4CCC(=O)NC4=O)cc3F)CC2)C(F)(F)C1 ? Its viability at 72 h, 0.00101 µM was 102

====

# measurement description: Pharmacokinetic study in male CD1 mice
# Format: in vivo, mouse
# experimental setup: mouse, plasma; male CD1 mice, 10 mg/kg PO, Mean
endpoint label: Tmax (h)
# output: bare number, implied unit h

So, COc1cc(-c2cn(C)c(=O)c(C)c2C)cc(OC)c1CN1CC[C@H](N2CCN(c3ccc(N[C@H]4CCC(=O)NC4=O)cc3F)CC2)C(F)(F)C1 [Compound 1] ? Its Tmax was 1.33

====

# measurement description: Pharmacokinetic study in male Sprague Dawley rats
# Format: in vivo, rat
# experimental setup: rat, plasma; 2 mg/kg IV, Male Sprague Dawley Rats, mean; read-out: Vdss
# Description: The pharmacokinetic (PK) profile in plasma of Compound 1 was determined in male Sprague Dawley rats following single dose intravenous (IV) (2 mg/kg) and per os (PO) (10 mg/kg) administration. […] All animals were housed in cages with clean bedding and maintained and monitored for good health and at the discretion of the laboratory animal veterinarian. […]
endpoint label: Vd (L/kg)
# output: bare number, implied unit L/kg

So, COc1cc(-c2cn(C)c(=O)c(C)c2C)cc(OC)c1CN1CC[C@H](N2CCN(c3ccc(N[C@H]4CCC(=O)NC4=O)cc3F)CC2)C(F)(F)C1 [Compound 1] ? Its Vd was 6.7

====

# measurement description: Approximate solubility in solvents at 25° C. and 50° C. (visual observation)
# Type: physicochemical
# experimental setup: organic solvent or mixture, thermodynamic from solid; THF (Tetrahydrofuran), 25° C., target conc. = 250 mg/mL
endpoint label: Solubility

So, COc1cc(-c2cn(C)c(=O)c(C)c2C)cc(OC)c1CN1CC[C@H](N2CCN(c3ccc(N[C@H]4CCC(=O)NC4=O)cc3F)CC2)C(F)(F)C1 ? Its Solubility was > 250 mg/mL

====

# measurement description: Pharmacokinetic study in male Sprague Dawley rats
# Format: in vivo, rat
# experimental setup: male, Sprague Dawley, rat, plasma, oral, 10 mg/kg, 10 mg/kg PO, Male Sprague Dawley Rats, 0.033 h, Rat-3; read-out: Plasma Concentration (ng/mL) Rat-3
endpoint label: concentration at 0.033 h

So, COc1cc(-c2cn(C)c(=O)c(C)c2C)cc(OC)c1CN1CC[C@H](N2CCN(c3ccc(N[C@H]4CCC(=O)NC4=O)cc3F)CC2)C(F)(F)C1 ? Its concentration at 0.033 h was 1.81 ng/mL

====

# measurement description: HepG2 in vitro viability assay (CellTiter-Glo, 72 hours)
# Assay type: cell-based, human
# experimental setup: human, HepG2 cells; 3161 nM, 72-hour treatment
endpoint label: viability at 72 h, 3.161 µM (%)
# output: bare number, implied unit %

So, COc1cc(-c2cn(C)c(=O)c(C)c2C)cc(OC)c1CN1CC[C@H](N2CCN(c3ccc(N[C@H]4CCC(=O)NC4=O)cc3F)CC2)C(F)(F)C1 ? Its viability at 72 h, 3.161 µM was 84.6

====

# measurement description: Pharmacokinetic study in male Sprague Dawley rats
# Type: in vivo, rat
# experimental setup: male, Sprague Dawley, rat, plasma, oral, 10 mg/kg, 10 mg/kg PO, Male Sprague Dawley Rats, 8 h, Rat-2; read-out: Plasma Concentration (ng/mL) Rat-2
endpoint label: concentration at 8 h (ng/mL)
# output: bare number, implied unit ng/mL

So, COc1cc(-c2cn(C)c(=O)c(C)c2C)cc(OC)c1CN1CC[C@H](N2CCN(c3ccc(N[C@H]4CCC(=O)NC4=O)cc3F)CC2)C(F)(F)C1 [Compound 1] ? Its concentration at 8 h was 527

====

# measurement description: Pharmacokinetic study in male CD1 mice
# Format: in vivo, mouse
# experimental setup: male, CD1, mouse, plasma, intravenous, 2 mg/kg, 2 mg/kg IV, 0.33 h; read-out: Plasma Concentration, Average
endpoint label: concentration at 0.33 h (ng/mL)
# output: bare number, implied unit ng/mL

So, COc1cc(-c2cn(C)c(=O)c(C)c2C)cc(OC)c1CN1CC[C@H](N2CCN(c3ccc(N[C@H]4CCC(=O)NC4=O)cc3F)CC2)C(F)(F)C1 [Compound 1] ? Its concentration at 0.33 h was 1090

====

# measurement description: Pharmacokinetic study in male CD1 mice
# Format: in vivo, mouse
# experimental setup: mouse, plasma; male CD1 mice, 2 mg/kg IV, Mean
endpoint label: C0 (ng/mL)
# output: bare number, implied unit ng/mL

So, COc1cc(-c2cn(C)c(=O)c(C)c2C)cc(OC)c1CN1CC[C@H](N2CCN(c3ccc(N[C@H]4CCC(=O)NC4=O)cc3F)CC2)C(F)(F)C1 ? Its C0 was 1440

====

# measurement description: Human Hepatocyte Stability Assay
# Format: in vitro ADME
# experimental setup: cryopreserved hepatocytes
endpoint label: half-life at 1 µM

So, COc1cc(-c2cn(C)c(=O)c(C)c2C)cc(OC)c1CN1CC[C@H](N2CCN(c3ccc(N[C@H]4CCC(=O)NC4=O)cc3F)CC2)C(F)(F)C1 [Compound 1] ? Its half-life at 1 µM was > 2 h

====

# measurement description: physchem
# experimental setup: 37 °C, pH 1.8, simulated gastric fluid, thermodynamic from solid
endpoint label: Solubility

So, COc1cc(-c2cn(C)c(=O)c(C)c2C)cc(OC)c1CN1CC[C@H](N2CCN(c3ccc(N[C@H]4CCC(=O)NC4=O)cc3F)CC2)C(F)(F)C1 [Form P] ? Its Solubility was > 2000 µg/mL

====

# measurement description: Pharmacokinetic study in male Sprague Dawley rats
# Type: in vivo, rat
# experimental setup: male, Sprague Dawley, rat, plasma, oral, 10 mg/kg, 10 mg/kg PO, Male Sprague Dawley Rats, 4 h, Rat-2; read-out: Plasma Concentration (ng/mL) Rat-2
endpoint label: concentration at 4 h (ng/mL)
# output: bare number, implied unit ng/mL

So, COc1cc(-c2cn(C)c(=O)c(C)c2C)cc(OC)c1CN1CC[C@H](N2CCN(c3ccc(N[C@H]4CCC(=O)NC4=O)cc3F)CC2)C(F)(F)C1 [Compound 1] ? Its concentration at 4 h was 593

====

# measurement description: Pharmacokinetic study in male CD1 mice
# Format: in vivo, mouse
# experimental setup: male, CD1, mouse, plasma, intravenous, 2 mg/kg, 2 mg/kg IV, 24 h; read-out: Plasma Concentration, Average
endpoint label: concentration at 24 h (ng/mL)
# output: bare number, implied unit ng/mL

So, COc1cc(-c2cn(C)c(=O)c(C)c2C)cc(OC)c1CN1CC[C@H](N2CCN(c3ccc(N[C@H]4CCC(=O)NC4=O)cc3F)CC2)C(F)(F)C1 [Compound 1] ? Its concentration at 24 h was 10.2

====

# measurement description: in vitro
# experimental setup: monkey, plasma
endpoint label: fraction unbound at 3 h, 2 µM
Answer with a number only.

So, COc1cc(-c2cn(C)c(=O)c(C)c2C)cc(OC)c1CN1CC[C@H](N2CCN(c3ccc(N[C@H]4CCC(=O)NC4=O)cc3F)CC2)C(F)(F)C1 ? Its fraction unbound at 3 h, 2 µM was 0.0514
